Values from paper PMC6895048

# targetSystem: IDO1 (Homo sapiens, UniProt P14902)
# Sequence (P14902 whole entry): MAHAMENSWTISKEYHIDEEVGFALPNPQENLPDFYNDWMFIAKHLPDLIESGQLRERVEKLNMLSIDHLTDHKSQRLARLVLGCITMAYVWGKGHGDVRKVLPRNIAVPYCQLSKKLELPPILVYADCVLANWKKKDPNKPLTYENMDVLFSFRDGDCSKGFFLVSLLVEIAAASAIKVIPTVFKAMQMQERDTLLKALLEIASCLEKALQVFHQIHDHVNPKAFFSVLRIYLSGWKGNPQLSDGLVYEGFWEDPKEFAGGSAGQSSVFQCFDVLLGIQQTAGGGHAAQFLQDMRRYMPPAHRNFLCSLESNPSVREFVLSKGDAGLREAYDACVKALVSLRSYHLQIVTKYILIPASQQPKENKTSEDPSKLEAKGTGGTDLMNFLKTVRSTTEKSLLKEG
# assayName: Kynurenine assay by HPLC analysis, IDO1
# Type: biochemical
# Set-up: made in house; host or cells: Escherichia coli M15 (pQE30 vector with pREP4 plasmid)
# measurementConditions: HPLC; 100 µM
measuredAttribute: % Of inhibition for IDO1 enzyme (%)
Field: numeric (%). Do not append units.

Here's what some known entries look like.
>>> observedmeasurement("CCOC(=O)c1n[nH]nc1-c1ccc(F)c(F)c1 [Compound 2i]")
80
>>> observedmeasurement("NC(=O)c1n[nH]nc1-c1ccc(Cl)c(Cl)c1 [Compound 3j]")
89
>>> observedmeasurement("O=C(O)c1n[nH]nc1-c1ccc(F)c(F)c1 [Compound 4a]")
65
>>> observedmeasurement("O=C(N/C(Cc1ccc(O)cc1)=N\\O)c1n[nH]nc1-c1ccc(F)c(F)c1 [Compound 4i]")
84
>>> observedmeasurement("CCOC(=O)c1n[nH]nc1-c1ccc(Cl)c(Cl)c1 [Compound 2j]")
77

query: # get_value(readout='% Of inhibition for IDO1 enzyme', item= NC(=O)c1n[nH]nc1-c1ccc(F)c(F)c1 [Compound 3i] )
result: 83

---

# targetSystem: IDO1 (Homo sapiens)
# assayName: Kynurenine assay by HPLC analysis, IDO1
# Assay type: biochemical
# Parameters: made in house; host or cells: Escherichia coli M15 (pQE30 vector with pREP4 plasmid)
# measurementConditions: HPLC; 32 nM
measuredAttribute: % Of inhibition for IDO1 enzyme (%)
Field: numeric (%). Do not append units.

Here's what some known entries look like.
>>> observedmeasurement("NC(=O)c1n[nH]nc1-c1ccc(Cl)c(Cl)c1")
39
>>> observedmeasurement("O=C(O)c1n[nH]nc1-c1ccc(F)c(F)c1")
11
>>> observedmeasurement("O=C(N/C(Cc1ccc(O)cc1)=N\\O)c1n[nH]nc1-c1ccc(F)c(F)c1")
13
>>> observedmeasurement("NC(=O)c1n[nH]nc1-c1ccc(F)c(F)c1")
27
>>> observedmeasurement("CCOC(=O)c1n[nH]nc1-c1ccc(F)c(F)c1")
21

--- query ---
query: # get_value(readout='% Of inhibition for IDO1 enzyme', item= CCOC(=O)c1n[nH]nc1-c1ccc(Cl)c(Cl)c1 )
result: 24

---

# targetSystem: TDO enzyme (Homo sapiens)
# Construct: 6xHis (N); made in house; host or cells: Escherichia coli BL21 (DE3) (pET 28a vector)
# Sequence (P48775 whole entry): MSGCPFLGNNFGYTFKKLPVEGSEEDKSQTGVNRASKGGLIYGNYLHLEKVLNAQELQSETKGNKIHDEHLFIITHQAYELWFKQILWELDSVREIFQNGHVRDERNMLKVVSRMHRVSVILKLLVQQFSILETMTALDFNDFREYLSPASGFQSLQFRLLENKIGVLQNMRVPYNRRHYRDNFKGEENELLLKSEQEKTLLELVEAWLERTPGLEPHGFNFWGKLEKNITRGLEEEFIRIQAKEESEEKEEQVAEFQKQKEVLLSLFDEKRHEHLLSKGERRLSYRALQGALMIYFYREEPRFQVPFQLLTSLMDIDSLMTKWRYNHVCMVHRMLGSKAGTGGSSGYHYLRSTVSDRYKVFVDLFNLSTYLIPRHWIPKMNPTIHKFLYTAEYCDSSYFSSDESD
# assayName: HPLC based TDO inhibition assay
# Assay type: biochemical
# measurementConditions: 800 nM
# Experimental: HPLC based IDO1, and TDO inhibition assays were performed according to the earlier reported procedure[19],[27]–[30]. […] The area under the curve at 365 nm chromatogram corresponding to the kynurenine formation was recorded, and % of inhibition was calculated using standard curve prepared with pure kynurenine (from Sigma) under similar experimental conditions.
Catalogue of % Of inhibition for TDO enzyme readings, one per entry.
Field: numeric (%). Do not append units.

Here's what some known entries look like.
>>> observedmeasurement("CCOC(=O)c1n[nH]nc1-c1ccc(F)c(F)c1")
49
>>> observedmeasurement("NC(=O)c1n[nH]nc1-c1ccc(F)c(F)c1")
21
>>> observedmeasurement("NC(=O)c1n[nH]nc1-c1ccc(Cl)c(Cl)c1")
42

query: Field: % Of inhibition for TDO enzyme (TDO enzyme (Homo sapiens)). Entry: O=C(N/C(Cc1ccc(O)cc1)=N\O)c1n[nH]nc1-c1ccc(F)c(F)c1
result: 26

query: Field: % Of inhibition for TDO enzyme (TDO enzyme (Homo sapiens)). Entry: O=C(O)c1n[nH]nc1-c1ccc(F)c(F)c1
result: 26

query: Field: % Of inhibition for TDO enzyme (TDO enzyme (Homo sapiens)). Entry: CCOC(=O)c1n[nH]nc1-c1ccc(Cl)c(Cl)c1
result: 36
